Each entry below carries its recorded mass density.
assay setup: 308.15 K; 101.33 kPa; Liquid; Pycnometric method
± gives the expanded uncertainty stated by the source.
quantity name: mass density

INSERT INTO measurements (compound, recorded_result) VALUES
  ('CCCC[n+]1cccc(C)c1.O=S(=O)([N-]S(=O)(=O)C(F)(F)F)C(F)(F)F', '1421 ± 25 kg/m3'),
  ('CC[n+]1ccccc1.O=S(=O)([N-]S(=O)(=O)C(F)(F)F)C(F)(F)F [1-ethylpyridinium bis[(trifluoromethyl)sulfonyl]imide]', '1528 ± 25 kg/m3'),
  ('CCCC[n+]1cccc(C)c1.F[B-](F)(F)F [1-butyl-3-methylpyridinium tetrafluoroborate]', '1168 ± 25 kg/m3'),
  ('CCCC[n+]1cccc(C)c1.O=S(=O)([O-])C(F)(F)F [1-butyl-3-methylpyridinium trifluoromethanesulfonate]', '1285 ± 25 kg/m3'),
  ('CCCC[n+]1ccc(C)cc1.O=S(=O)([N-]S(=O)(=O)C(F)(F)F)C(F)(F)F', '1411 ± 25 kg/m3'),
  ('CCCC[n+]1ccccc1.O=S(=O)([N-]S(=O)(=O)C(F)(F)F)C(F)(F)F [1-butylpyridinium bis[(trifluoromethyl)sulfonyl]imide]', '1441 ± 25 kg/m3'),
  ('CCCC[n+]1ccccc1C.O=S(=O)([N-]S(=O)(=O)C(F)(F)F)C(F)(F)F', '1450 ± 25 kg/m3'),
  ('CCCCCC[n+]1ccccc1.O=S(=O)([N-]S(=O)(=O)C(F)(F)F)C(F)(F)F [1-hexylpyridinium bis(trifluromethylsulfonyl)imide]', '1373 ± 25 kg/m3');
